- Applied Conditions: 313.15 K; 101 kPa; Liquid; Frequency=2 MHz; Linear variable-path acoustic interferometer
Observation Type: speed of sound (m/s)
Note: unit m/s is implicit; provide only the numeric part.

Examples from the recorded data:
Compound Structure String: Cc1cccc(Cl)c1
speed of sound [m/s]: 1247

Compound Structure String: OCc1ccccc1
speed of sound [m/s]: 1485

Compound Structure String: Cc1ccc(Cl)cc1
speed of sound [m/s]: 1237

Compound Structure String: Cc1cccc([N+](=O)[O-])c1
speed of sound [m/s]: 1409

Compound Structure String: Cc1ccccc1Cl
speed of sound [m/s]: 1248

Now consider a different molecule.
Query string: For the molecule Cc1ccccc1[N+](=O)[O-] , give its reported speed of sound.
Result string: 1403
